Measured cell viability accompanies every entry in the list below.
- Tested on: Molm13
- test: cell viability relative to DMSO control (bortezomib = 0%); higher = less growth inhibition
- conditions.used: 10 nM; 72 h
Write the number in % without appending the unit.

stdin: Entry Cn1cc(C2=C(c3cccc(N)c3)C(=O)NC2=O)c2ccccc21 : reported cell viability = ?
stdout: 114

stdin: Entry CNc1nc(-c2ccc3c(N)n[nH]c3c2)cc(N2C[C@@H](C(=O)NC3CCCCC3)CC[C@H]2C)n1 : reported cell viability = ?
stdout: 112

stdin: Entry CNC(=O)c1cc(Oc2ccc(NC(=O)c3cccc(C(F)(F)F)c3)cc2)ccn1 : reported cell viability = ?
stdout: 96.3

stdin: Entry Cc1c(C)c2c(c(C)c1O)CC[C@@](C)(CCC[C@H](C)CCC[C@H](C)CCCC(C)C)O2 : reported cell viability = ?
stdout: 93.3

stdin: Entry CCCCCCCCCC(=O)CC(O)S(=O)(=O)O (stereo not given) [Sodium houttuyfonate] : reported cell viability = ?
stdout: 108

* * *

Measured cell viability accompanies every entry in the list below.
- Tested on: Molm13
- test: cell viability relative to DMSO control (bortezomib = 0%); higher = less growth inhibition
- conditions.used: 10 nM; 72 h
Write the number in % without appending the unit.

stdin: For Molm13, provide cell viability of C#Cc1cccc(Nc2ncnc3cc(OC)c(OCCCCCCC(=O)NO)cc23)c1 please.
stdout: 105

stdin: For Molm13, provide cell viability of COc1cc2ncnc(Nc3ccc(F)c(Cl)c3)c2cc1NC(=O)/C=C/CN1CCCCC1 please.
stdout: 104

stdin: For Molm13, provide cell viability of COc1ccc(CNC(=O)Nc2ncc([N+](=O)[O-])s2)cc1 please.
stdout: 107

* * *

- System: Mv4-11
- test: cell viability relative to DMSO control (bortezomib = 0%); higher = less growth inhibition
- conditions.used: 10 nM; 72 h
Counter-ions that a name gives are not always drawn.
experimental.readout: cell viability (%)
Write the number in % without appending the unit.

Sample answers from the record:
1) CCc1cncnc1N1CCN(Cc2nc3ccc(C(F)(F)F)cc3[nH]2)CC1 ... 116
2) CCCCCCCCCCCC(=O)NC[C@]1(C)CCC[C@]2(C)c3ccc(C(C)C)cc3CCC12 (some centres undefined) [Lauric Acid Leelamide] ... 104
3) Oc1cccc(-c2nc(N3CCOCC3)c3oc4ncccc4c3n2)c1 ... 104
4) CCNc1nc(Nc2cc(F)c(C(=O)N3CCOCC3)cc2OC)ncc1C(F)(F)F ... 102

stdin: Entry Cc1cc(F)c(Nc2ncnc3cc(OCc4ccccc4)ccc23)cc1O : reported cell viability = ?
stdout: 118

stdin: Entry O=C(Nc1cccc(Nc2ncc(Br)c(NCCc3cnc[nH]3)n2)c1)N1CCCC1 : reported cell viability = ?
stdout: 81.2

stdin: Entry O=c1cc(-c2ccccc2)oc2c(O)c(O)ccc12 [7,8-Dihydroxyflavone] : reported cell viability = ?
stdout: 104

stdin: Entry FC(F)(F)c1ccc(CNc2ccc(Cc3c[nH]c4ncccc34)cn2)cc1 : reported cell viability = ?
stdout: 110

stdin: Entry CC(C)(C)NS(=O)(=O)c1cncc(-c2cc(F)c3nc(N)nn3c2)c1 : reported cell viability = ?
stdout: 105

stdin: Entry O=c1c(-c2ccc(O)cc2)coc2cc(O)cc(O)c12 : reported cell viability = ?
stdout: 122

stdin: Entry CC(=O)CC(c1ccccc1)c1c(O)c2ccccc2oc1=O (centres undefined) [Warfarin] : reported cell viability = ?
stdout: 103

stdin: Entry COc1cc(CCc2cc(NC(=O)c3ccc(N4CC(C)NC(C)C4)cc3)n[nH]2)cc(OC)c1 (centres undefined) : reported cell viability = ?
stdout: 99.5

stdin: Entry COc1ccc(C=C(C#N)c2cccnc2)cc1OC : reported cell viability = ?
stdout: 103

stdin: Entry CN(C)CCOc1ccc(-c2nc(-c3ccncc3)c(-c3ccc4c(c3)CC/C4=N\O)[nH]2)cc1 : reported cell viability = ?
stdout: 101

stdin: Entry c1cc(-c2cnn3cc(-c4ccc(OCCN5CCCCC5)cc4)cnc23)ccn1 [Dorsomorphin dihydrochloride] : reported cell viability = ?
stdout: 65.7

stdin: Entry COc1cc2nccc(Oc3ccc(NC(=O)Nc4cc(C)on4)c(Cl)c3)c2cc1OC : reported cell viability = ?
stdout: 96.1

stdin: Entry Nc1ncnc2c1c(I)cn2[C@@H]1O[C@H](CO)[C@@H](O)[C@H]1O : reported cell viability = ?
stdout: 87.1

stdin: Entry CN(C)C(=O)c1ccc(S(=O)(=O)c2ccc(NC(=O)[C@@](C)(O)C(F)(F)F)c(Cl)c2)cc1 : reported cell viability = ?
stdout: 109

stdin: Entry N#CC[C@H](C1CCCC1)n1cc(-c2ncnc3[nH]ccc23)cn1 : reported cell viability = ?
stdout: 109
